Biological target: melanocortin-5 receptor (human, UniProt P33032 1-325)
Sequence (P33032 whole entry): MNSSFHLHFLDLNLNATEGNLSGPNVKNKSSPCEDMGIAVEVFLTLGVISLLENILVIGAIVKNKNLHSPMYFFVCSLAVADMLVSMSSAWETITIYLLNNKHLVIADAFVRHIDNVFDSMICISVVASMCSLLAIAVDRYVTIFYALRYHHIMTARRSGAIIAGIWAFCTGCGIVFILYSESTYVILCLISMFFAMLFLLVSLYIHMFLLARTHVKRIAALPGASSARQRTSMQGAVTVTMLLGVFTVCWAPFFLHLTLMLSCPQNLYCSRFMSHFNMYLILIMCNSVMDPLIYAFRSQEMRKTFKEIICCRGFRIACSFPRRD
Experiment: cell-based or functional assay
Bridge positions count the residues as written; N and C are the ends. Square brackets hold non-standard residues; d marks the D form.
outcome-measure: Ratios of EC50 values: MC5/4
One number for each entry.

>>> observed_result("Ac-RC[dA]Q[dF]RWC-NH2 (disulfide 2-8; SMILES CC(=O)N[C@@H](CCCNC(=N)N)C(=O)N[C@H]1CSSC[C@@H](C(N)=O)NC(=O)[C@H](Cc2c[nH]c3ccccc23)NC(=O)[C@H](CCCNC(=N)N)NC(=O)[C@@H](Cc2ccccc2)NC(=O)[C@H](CCC(N)=O)NC(=O)[C@@H](C)NC1=O) [Compound 8: Ac-Arg-cyclo[Cys-D-Ala-Gln-D-Phe-Arg-Trp-Cys]-NH2]")
155
>>> observed_result("Ac-RC[dA]N[dF]RWC-NH2 (disulfide 2-8; SMILES CC(=O)N[C@@H](CCCNC(=N)N)C(=O)N[C@H]1CSSC[C@@H](C(N)=O)NC(=O)[C@H](Cc2c[nH]c3ccccc23)NC(=O)[C@H](CCCNC(=N)N)NC(=O)[C@@H](Cc2ccccc2)NC(=O)[C@H](CC(N)=O)NC(=O)[C@@H](C)NC1=O) [Compound 9: Ac-Arg-cyclo[Cys-D-Ala-Asn-D-Phe-Arg-Trp-Cys]-NH2]")
530

// switching to the query binder
Exercise: Identify the reported Ratios of EC50 values: MC5/4 for the following entry. Ac-RC[dI]H[dF]RWC-NH2 (disulfide 2-8) [Compound 2: Ac-Arg-cyclo[Cys-D-Ile-His-D-Phe-Arg-Trp-Cys]-NH2]
Key: 420
